For each of the binders below, state its EC50.
Biological target: T1, huNav1.7α+β1 (human, UniProt Q15858 1-1988; Q07699 19-218)
T1 construct: also called huNav1.7-beta1; HEKa/β1
Experiment: binding FACS, HEKa/β1 cells
Answer by giving the amount and then stating its unit.

Sample records with EC50:
- BINDER: "F010300900 (VHH, vs F0103275B05: S27P, I28V, S33R, N53P, S56D, N93R, A94W, T101I) VHH: EVQLVESGGGLVQPGGSLRLSCAASGPVFNINRMAWYRRAPGKQRELVASSTPGGDTNYADSVKGRFTISRDNAKRVYLQMNSLTPEDTAVYYCRWLLQPSIYDISRIYWGQGTLVTVSS"
  EC50: "70 nM"
- BINDER: "F010301000 (VHH, vs F0103275B05: S27P, I28V, S33R, S50Y, N53P, S56D, T101I) VHH: EVQLVESGGGLVQPGGSLRLSCAASGPVFNINRMAWYRRAPGKQRELVAYSTPGGDTNYADSVKGRFTISRDNAKRVYLQMNSLTPEDTAVYYCNALLQPSIYDISRIYWGQGTLVTVSS"
  EC50: "60 nM"
- BINDER: "F010300880 (VHH, vs F0103275B05: S27P, I28V, S33R, N53P, S56D, N93R, A94W) VHH: EVQLVESGGGLVQPGGSLRLSCAASGPVFNINRMAWYRRAPGKQRELVASSTPGGDTNYADSVKGRFTISRDNAKRVYLQMNSLTPEDTAVYYCRWLLQPSIYDISRTYWGQGTLVTVSS"
  EC50: "44 nM"

From here, focus on the item given below.
Input: What EC50 value was documented for this binder, F010301459 (VHH, vs F0103275B05: S27P, I28V, S33R, N53P, S56D, N93R) VHH: EVQLVESGGGLVQPGGSLRLSCAASGPVFNINRMAWYRRAPGKQRELVASSTPGGDTNYADSVKGRFTISRDNAKRVYLQMNSLTPEDTAVYYCRALLQPSIYDISRTYWGQGTLVTVSS ?
Output: 18 nM
